System: mushroom tyrosinase (Sigma T3824)
Test: Mushroom Tyrosinase Inhibition Assay
Type: biochemical
Conditions: 10 μM compound, 300 μM L-Tyrosine, 84 units/mL enzyme, pH 6.5, 15 min room temperature
Method: 10 μM compound, 300 μM L-Tyrosine, and 84 units/mL of mushroom tyrosinase (Sigma T3824) were combined into 0.05 M potassium monophosphate buffer at pH=6.5, and incubated for 15 min at room temperature. Absorbance was recorded at 490 nm. % tyrosinase inhibition was calculated as follows: (AbsDMSO−Abscmpd)/AbsDMSO×100. […]
Entries and their measured Mushroom Tyrosinase (% remaining enzyme activity) % TYR Activity follow.
PROPERTY_NAME: Mushroom Tyrosinase (% remaining enzyme activity) % TYR Activity (%)

>  <COMPOUND>
Oc1cc(O)c(C2CCCCC2)c(F)c1 [4,5EFR, 4-cyclohexyl-5-fluorobenzene-1,3-diol]

>  <TARGET_DESC>
mushroom tyrosinase (Sigma T3824)

>  <NUMERIC_RESULT>
3

$$$$
>  <COMPOUND>
CCCCCCc1c(C)cc(O)cc1O

>  <TARGET_DESC>
mushroom tyrosinase (Sigma T3824)

>  <NUMERIC_RESULT>
10

$$$$
>  <COMPOUND>
CCCCCCc1ccc(O)cc1O [Compound 4HR, 4-hexylresorcinol, reference compound]

>  <TARGET_DESC>
mushroom tyrosinase (Sigma T3824)

>  <NUMERIC_RESULT>
1

$$$$
>  <COMPOUND>
Oc1cc(O)c(Cc2ccccc2)c(C(F)(F)F)c1

>  <TARGET_DESC>
mushroom tyrosinase (Sigma T3824)

>  <NUMERIC_RESULT>
93

$$$$
>  <COMPOUND>
Cc1cc(O)cc(O)c1C1CC1

>  <TARGET_DESC>
mushroom tyrosinase (Sigma T3824)

>  <NUMERIC_RESULT>
30

$$$$
>  <COMPOUND>
Cc1cc(O)cc(O)c1C(C)c1ccccc1 (stereo not drawn)

>  <TARGET_DESC>
mushroom tyrosinase (Sigma T3824)

>  <NUMERIC_RESULT>
105

$$$$
>  <COMPOUND>
Oc1ccc(C2CCCCC2)c(O)c1 [Compound 4CHR, 4-cyclohexylresorcinol, reference compound]

>  <TARGET_DESC>
mushroom tyrosinase (Sigma T3824)

>  <NUMERIC_RESULT>
0

$$$$
>  <COMPOUND>
Oc1cc(O)c(C2CCCCC2)c(C(F)(F)F)c1

>  <TARGET_DESC>
mushroom tyrosinase (Sigma T3824)

>  <NUMERIC_RESULT>
100

$$$$
>  <COMPOUND>
CCc1c(C)cc(O)cc1O

>  <TARGET_DESC>
mushroom tyrosinase (Sigma T3824)

>  <NUMERIC_RESULT>
93

$$$$

---

Tested on: mushroom tyrosinase (Sigma T3824)
Test: Mushroom Tyrosinase Inhibition Assay
Assay type: biochemical
Details: 10 μM compound, 300 μM L-Tyrosine, 84 units/mL enzyme, pH 6.5, 15 min room temperature
PROPERTY_NAME: Mushroom Tyrosinase (% remaining enzyme activity) % TYR Activity

>  <COMPOUND>
Cc1cc(O)cc(O)c1C1CCCCC1 [4,5CHMR, 4-cyclohexyl-5-methylbenzene-1,3-diol]

>  <RESULT>
22%

$$$$
>  <COMPOUND>
CCC(C)c1c(C)cc(O)cc1O (stereo not shown) [4,5sBMR, 4-sec-butyl-5-methylbenzene-1,3-diol]

>  <RESULT>
100%

$$$$
>  <COMPOUND>
O=c1cc(CO)occ1O [Kojic Acid, kojic acid, reference compound]

>  <RESULT>
84%

$$$$
>  <COMPOUND>
Cc1cc(O)cc(O)c1 [Compound 5MR, 5-methylresorcinol, reference compound]

>  <RESULT>
100%

$$$$
>  <COMPOUND>
Cc1cc(O)cc(O)c1Cc1ccccc1 [4,5BnMR, 4-benzyl-5-methylbenzene-1,3-diol]

>  <RESULT>
97%

$$$$
>  <COMPOUND>
Cc1cc(O)cc(O)c1CC1CCCC1 [4,5MCPMR]

>  <RESULT>
32%

$$$$
>  <COMPOUND>
Oc1cc(O)c(C2CCCCC2)c(F)c1 [4,5CHFR, 4-cyclohexyl-5-fluorobenzene-1,3-diol]

>  <RESULT>
1%

$$$$
>  <COMPOUND>
CCc1c(O)cc(O)cc1C(F)(F)F [4,5ETFMR]

>  <RESULT>
102%

$$$$
>  <COMPOUND>
CCc1ccc(O)cc1O [Compound 4ER, 4-ethyl resorcinol, reference compound]

>  <RESULT>
2%

$$$$
>  <COMPOUND>
Cc1cc(O)cc(O)c1CC(F)(F)F [4,5TFEMR]

>  <RESULT>
103%

$$$$
